# experimental_system: Lysosomal alpha-glucosidase (Homo sapiens) (UniProt P10253)
# experiment: qHTS Assay for Inhibitors of Human alpha-Glucosidase as a Potential Chaperone Treatment of Pompe Disease;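 note: plate controls were uninhibited enzyme wells for no effect and no-enzyme background for full effect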
# measurement_parameters: purified human GAA, 4-MU-alpha-glucoside fluorescence; series mostly up to 76.9 µM
In all, about 200,000 compounds went through this assay and about 10 (0.005%) were called active. Not shown: some 8% with an inconclusive outcome. Not all results are given here.

molecule	activity change, negative = inhibition
CCC1(C)Cc2c(sc3nc(SC)[nH]c(=O)c23)CO1 (centres undefined)	0.866% [at 15.4 µM] (inactive)
O=C(NCC1CCCO1)c1cc(-c2ccccc2)nc2ccccc12 (centres undefined)	-10.8% [at 15.4 µM] (inactive)
COc1ccc(C)cc1NC(=S)Nc1ccccc1SC	inactive
COC(=O)c1sccc1NN1C(=O)c2ccccc2C1=O	inactive
CCc1nc(C)cn1S(=O)(=O)c1cc([N+](=O)[O-])ccc1Cl	inactive
COc1ccc2[nH]c(C(=O)Nc3ccccc3Cl)cc2c1	inactive
CC1CC(C)CN(C(=O)CSc2ccsc2[N+](=O)[O-])C1 (centres undefined)	inactive
Cc1nn(-c2ccccc2)c(=O)c2noc(C)c12	-3.66% [at 15.4 µM] (inactive)
COc1cc(/C=C2/C(=O)ON=C2C)ccc1OCc1cccc(F)c1	inactive

====

# experimental_system: Lysosomal alpha-glucosidase (Homo sapiens) (UniProt P10253)
# experiment: qHTS Assay for Inhibitors of Human alpha-Glucosidase as a Potential Chaperone Treatment of Pompe Disease;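 note: plate controls were uninhibited enzyme wells for no effect and no-enzyme background for full effect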
# measurement_parameters: purified human GAA, 4-MU-alpha-glucoside fluorescence; series mostly up to 76.9 µM
Hit rate of the full screen: of about 200,000 compounds, about 10 (0.005%) were called active. Roughly 8% stayed inconclusive and do not appear here. Not all results are given here.

molecule	activity change, negative = inhibition
CCOC(=O)c1sc(NC(=O)CSc2nc(O)c(Cc3ccccc3)c(=O)[nH]2)nc1C	inactive
c1ccc(-n2nnnc2-c2cccnc2)cc1	inactive
Cc1onc(C(=O)NN)c1C(=O)N1CCN(C(c2ccccc2)c2ccccc2)CC1	inactive
CCN(CC)P(=O)(Nc1ccc(SC(F)F)cc1)c1ccc(N(C)C)cc1NC(=O)c1ccco1 (stereo not drawn)	inactive
CSc1ccc(CNCCN2CCOCC2)cc1	inactive
COc1ccccc1-n1c(=S)[nH]c2c(sc(=S)n2-c2ccc(C)cc2C)c1=O	inactive
CCOC(=O)C(=CNNc1ccsc1C(=O)OC)C(=O)OCC	inactive
Cc1cc(C)nc(NC(=O)/C=C/c2ccc(Cl)cc2)n1	inactive
CSCC[C@H](NC(=O)NC1CCCC1)C(=O)O	-5.49% [at 15.4 µM] (inactive)
COc1ccc(N2C(=O)C3C(C2=O)C(C(=O)c2ccccc2)N2CCCC32)cc1 (stereo not drawn)	-6.45% [at 15.4 µM] (inactive)
COc1ccc(Cl)cc1NC(=O)C(C)N1CCc2ccccc21 (stereo not drawn)	inactive
Cc1noc(C)c1-c1nc(CSc2ccc(Cl)cc2)no1	inactive
COc1ccc(CN2CCC(c3nc4ccc(Cl)cc4[nH]3)CC2)cc1	inactive
Cc1ccc(/C=N/NC(=O)CSc2ccccn2)o1	0.179% [at 15.4 µM] (inactive)
CC1CCN(S(=O)(=O)c2ccc3ncn(CC(=O)N(C)C4CCCCC4)c(=O)c3c2)CC1	inactive
N/C(=N\OC(=O)Cc1ccc([N+](=O)[O-])cc1)c1ccccn1	inactive
CCc1ccc(NC(=O)N2CCN(c3ccccc3)CC2)cc1	inactive
O=C(NNS(=O)(=O)c1ccccc1C(F)(F)F)c1cc2ncc(C(F)(F)F)cc2s1	inactive
COc1cc(C)c(S(=O)(=O)N2CCOCC2)c(C)c1C	inactive
Cc1ccc(Cl)cc1NC(=O)COC(=O)CC(C)(C)C	inactive
COC(=O)c1cn(C(=O)c2ccc(Cl)cc2)c2ccccc12	inactive
Cc1c(C(=O)Nc2ccccc2)sc2nc3n(c(=O)c12)CCCCC3	inactive
O=C(Nc1ccc(S(=O)(=O)Nc2nccs2)cc1)c1cc(=O)[nH]c2ccccc12	-5.51% [at 15.4 µM] (inactive)

====

# experimental_system: Lysosomal alpha-glucosidase (Homo sapiens)
# experiment: qHTS Assay for Inhibitors of Human alpha-Glucosidase as a Potential Chaperone Treatment of Pompe Disease;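 note: plate controls were uninhibited enzyme wells for no effect and no-enzyme background for full effect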
# measurement_parameters: purified human GAA, 4-MU-alpha-glucoside fluorescence; series mostly up to 76.9 µM
Screen size: about 200,000 compounds; about 10 (0.005%) were called active. Roughly 8% stayed inconclusive and do not appear here. A selection follows.
parameter_measured: activity change, negative = inhibition

molecule	parameter_measured	observed_value
Cc1ccccc1-c1nc(C#N)c(NCc2ccco2)o1	activity change, negative = inhibition	inactive
COc1ccccc1C1CCN(C(=S)Nc2ccc(Br)cc2)CC1	activity change, negative = inhibition	-8.72% [at 15.4 µM] (inactive)
COc1ccc(C(=O)Nc2ccc(NC(=O)C(C)C)nc2)cc1	activity change, negative = inhibition	inactive
NNC(=O)c1cnn(-c2ccccc2)c1C(F)(F)F	activity change, negative = inhibition	inactive
Cc1ccc(C2CCN(C(=S)Nc3cccc(Cl)c3)C2)cc1 (stereo unspecified)	activity change, negative = inhibition	inactive
Cc1ccc(OC(=O)c2c(C)nn(-c3ccccc3)c2C)cc1	activity change, negative = inhibition	inactive

====

# experimental_system: Lysosomal alpha-glucosidase (Homo sapiens)
# experiment: qHTS Assay for Inhibitors of Human alpha-Glucosidase as a Potential Chaperone Treatment of Pompe Disease;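 note: plate controls were uninhibited enzyme wells for no effect and no-enzyme background for full effect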
# measurement_parameters: purified human GAA, 4-MU-alpha-glucoside fluorescence; series mostly up to 76.9 µM
# Description: NIH Chemical Genomics Center [NCGC] NIH Molecular Libraries Probe Production centers Network [MLPCN] […] NCGC Assay Protocol Summary: This is a fluorogenic enzyme assay with 4-methylumbelliferyl-alpha-D-[…] as the substrate and human alpha-glucosidase as the enzyme preparation. […] 4-methyllumbelliferone, can be excited at 365 nm and emits at 440 nm which can be detected by a standard fluorescence plate reader. […]
Screen size: about 200,000 compounds; about 10 (0.005%) were called active. Inconclusive results (about 8%) are left out. Not all results are given here.
parameter_measured: activity change, negative = inhibition

molecular_string	observed_value
CCc1ccc(-n2c(SCc3cc(=O)n4cc(Br)ccc4n3)nc3[nH]ncc3c2=O)cc1	inactive
CS(=O)(=O)c1ccc2nnn(OCC(=O)Nc3cccc(C#N)c3)c2c1	inactive
COCCCNC(=S)NCCNc1nc2cc(C)c(C)cc2cc1C#N	inactive
Cn1nc(C(F)(F)F)cc1-c1ccc(/C=C(\C#N)C(=O)c2cccc(C(F)(F)F)c2)s1	inactive
O=C(Cc1ccccc1)N1CCN(S(=O)(=O)c2ccc([N+](=O)[O-])cc2)CC1	inactive
CCOC(=O)C1CCN(c2ncnc3c2c(-c2ccccc2)cn3-c2ccc(C)cc2)CC1	inactive
Cc1cc(=O)[nH]c(S)c1C#N	1.79% [at 15.4 µM] (inactive)
COC(=O)c1cc(NC(=O)c2ccco2)ccc1N1CCOCC1	inactive
COc1ccccc1-c1c(C#N)c(N)nc2c1CCC2	6.93% [at 15.4 µM] (inactive)
Cc1cccc(CSc2nc3c(c(=O)n2C)SCC3)c1	inactive
COc1ccccc1NC(=O)c1cc(Cl)nc2ccccc12	-0.703% [at 15.4 µM] (inactive)
